Please consider the recorded Ki for Cannabinoid receptor 2 (Homo sapiens) in what follows.
Form entry: value (µM) — number only.

q: # query: Ki | item COc1ccc(-c2cn(Cc3ccc(F)cc3)c(=O)c(C(=O)NC3CCCCCC3)c2C)cc1 | system: Cannabinoid receptor 2 (Homo sapiens)
a: 0.0079

q: # query: Ki | item Cc1c(Br)cnc(OCc2ccc(F)cc2)c1C(=O)NC1CCCCCC1 | system: Cannabinoid receptor 2 (Homo sapiens)
a: 0.606

====

# maps each entry to its Emax
target: Cannabinoid receptor 2 (Homo sapiens, UniProt P34972)
Sequence (P34972 whole entry): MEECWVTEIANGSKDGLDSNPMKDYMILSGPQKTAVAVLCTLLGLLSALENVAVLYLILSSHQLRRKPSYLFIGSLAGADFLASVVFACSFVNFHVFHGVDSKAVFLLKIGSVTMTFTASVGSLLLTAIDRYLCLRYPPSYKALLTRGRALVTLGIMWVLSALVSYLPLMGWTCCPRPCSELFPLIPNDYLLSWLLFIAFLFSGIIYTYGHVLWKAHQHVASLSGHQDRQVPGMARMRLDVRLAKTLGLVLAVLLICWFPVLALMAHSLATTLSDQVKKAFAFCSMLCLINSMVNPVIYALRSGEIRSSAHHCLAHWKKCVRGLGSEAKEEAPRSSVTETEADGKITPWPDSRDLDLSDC
procedureDetails: Agonist activity at human CB2 receptor expressed in CHO cell membranes after 90 mins by [35S]GTPgammaS binding assay relative to control
Type: functional
Form entry: value (%) — number only.

Reference set (4 entries):
> print(dat)
                            structuresmiles  measuredattribute  assayvalue
1  Cc1c(Br)cn(Cc2ccc(F)cc2)c(=O)c1C(=O)NC1CCCCCC1               Emax         134
2  Cc1ccn(Cc2ccc(F)cc2)c(=O)c1C(=O)NC1CCCCCC1               Emax         128
3   Cc1ccnc(OCc2ccc(F)cc2)c1C(=O)NC1CCCCCC1               Emax         127
4  O=C(NC1CCCCCC1)c1c(-c2ccccc2)ccn(Cc2ccc(F)cc2)c1=O               Emax         134

Next, consider the following compound.
q: # query: Emax | item CCCCCCC(C)(C)c1ccc([C@@H]2C[C@H](O)CC[C@H]2CCCO)c(O)c1 | system: Cannabinoid receptor 2 (Homo sapiens, UniProt P34972)
a: 196
